This listing pairs sequences with measured apparent KD of K4 kissing-loop reporter.
Test system: K4 kissing-loop RNA reporter;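 also: bound reporter read as fluorescence of individual clusters on recovered sequencing chips by microscopy, with normalized cluster intensities fitted with a binding model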
Assay Details: apparent KD of K4 kissing-loop reporter; higher = weaker reporter binding
Test Conditions: Eterna round: R107; input ligand: none
Parameter: apparent KD of K4 kissing-loop reporter

>>> result("AAGUGUGUGGCGGCCGCCACUAGAAUCCAGUGAUGUUGGAGUUAUCAUAUAAUUGAUAAUCAACAUAGGACCGGGCCAUAUAGAA [Same State - Tryptophan B (Freestyle 6)]")
"540 nM"
>>> result("AUGUGGAGCGACGUUUAGAGAAACCGGGAAGGAGCGCGGAUAACCGCAGGUAGGUCGCCUGGUUGCCAGUGAUGUUGGCGACGUG [Exclusion Arg A GF 25]")
"144 nM"
>>> result("CACGAUGAAUUCUCUAGGAGUGAUGUUUUUCGAGGACCGGUACGGCCGCCACUCGGACCAGGAGCGUGGUAGCGGCGAAAAGACU [zpmullin]")
"545 nM"
>>> result("UGCCGGGCUGUACGUUACUUAAAUCGCGAUACCAGCGAUACAAUCCGCCCUUGGCAGCGCAGUGAUGUUGCGCGGUCAUUACGGG [theeternabot_exclusion_KL_Theo_A_27]")
"95.8 nM"
>>> result("GCGUUACUGAAAGGAUAUGAUCAACAUAGUGGUCAGUGAUGUUGGCAGGCCUCGUGGCGAGGUAGAUCAGAAGGUUCAUUACGAC [theeternabot_sameState_KL_FMN_B_11]")
"553 nM"
>>> result("AAGAAUAAUCUUGCAGUGAUGUUGCAAGAUACCAGCAUCGAAAGAUGCCCUUGGCAGCUUGAAAACAUCACUAUCAAGCUGCAUA [Design2]")
"664 nM"

----------
Test system: MS2 coat protein
Assay Details: apparent KD of MS2 coat protein; designed switch direction (-1 OFF switch, 1 ON switch): -1; higher = weaker reporter binding
Test Conditions: input ligand: none
Parameter: apparent KD of MS2 coat protein

>>> result("CAUACACAUGAGGAUCACCCAUGUGAGGAUAUUCGCGCGCGCGCCCGGGCGCGCGCGCGGAGAAGGCACGUGCG [My first try] (Eterna round: R97, puzzle: Exclusion 1)")
"51.2 nM"
>>> result("AACCUACAUGAGGAUCACCCAUGUGAGGAUAUAUUGGUAUUGAUGUUAUUUUUUAGAGGUAGAAGGCGCGUGAU [JR_Exc1_Sub022] (Eterna round: R97, puzzle: Exclusion 1)")
"14 nM"
>>> result("AAUAAAGGCCGAGGAUAUCGGAAAGGAAGUGUACGAGAAGGCGGCAAAAGAACAUGAGGAUCACCCAUGUGGGCCGAUCUUCCG [PowerStrip EXNG 1.2] (Eterna round: R96, puzzle: Exclusion NG 1)")
"18 nM"
>>> result("GGUACUCAAAGAGUACCAAUACGAACAUGAGGAUCACCCAUGUAGGAUAUGCUACUCAAAGAGUAGCAGAAGGAUAUGAACCUC [Far Half Aptamer v10] (Eterna round: R96, puzzle: Exclusion NG 3)")
"227 nM"
>>> result("CUUGUUUAUGUAGGAUAUGCCUGGCGUGCCUUUGCAGAAGGACAUGAGGAUCACCCAUGUAACAUGAGGCUCACCCUUGUCGCA [salish99_ExNG1_r04_115] (Eterna round: R96, puzzle: Exclusion NG 1)")
"162 nM"

----------
System: MS2 coat protein
Assay Details: apparent KD of MS2 coat protein; designed switch direction (-1 OFF switch, 1 ON switch): -1; higher = weaker reporter binding
Test Conditions: input ligand: FMN 200 uM
Parameter: apparent KD of MS2 coat protein (nM)

>>> quantitative_readout("ACAUGAGGAUCACCCAUGUGCACGUAAUGGCUCAUGUAGAGUGAGGAUAUGCGUGGCGAACGAGCGCAGAAGGCACAAGACUGG [Deportation 17 - Jieux - Exclusion NG 3] (Eterna round: R96, puzzle: Exclusion NG 3)")
106
>>> quantitative_readout("CCCGGGCCUGUGAGGAUAUGUUUGGGUAAACCCGGGCAGAAGGCACAUGAGGAUCACCCAUGUAAGGGUUUGGG [-29.6, -27.5 kcal, A 23%, 5bbis-5bbis] (Eterna round: R97, puzzle: Brourd's mod of Exclusion 4)")
22.6

----------
System: MS2 coat protein
Assay Details: apparent KD of MS2 coat protein; designed switch direction (-1 OFF switch, 1 ON switch): -1; higher = weaker reporter binding
Test Conditions: input ligand: FMN 200 uM
Decision: apparent KD of MS2 coat protein >= 60 nM yields Y, all other cases yield N.

>>> group_label("AAUUAGUAUGUGAGGAUAUUGAUGUAAUGAUGGUUUAAGAAGGCACAUGAGGAUCACCCAUGUAGGAAAUCACG [JR_BMEx4_Sub006] (Eterna round: R97, puzzle: Brourd's mod of Exclusion 4)")
"N"
>>> group_label("CUGAUUCUAGUAAGGAUAUCGGCGUGCACAGCAGCCGAGAAGGUACAUGAGGAUCACCCAUGUUGCUUCAACUU [Eternabot (Original) Solution 43] (Eterna round: R97, puzzle: Brourd's mod of Exclusion 4)")
"Y"
>>> group_label("AAUUAACAUGUAGGAUAUCUGCACGUGUAGUGCAGAGAAGGACAUGAGGAUCACCCAUGUAUAGCGACUUCGGUCGCAAUAAUU [ENG1/2-B3] (Eterna round: R96, puzzle: Exclusion NG 1)")
"Y"
>>> group_label("ACUGGUCGAGGAUAUGCAAUCGUGCUUCGGCACGUAAGAUCACAUGAGGAUCACCCAUGUAGAAGGCGACCAGU [E2/3-A2] (Eterna round: R97, puzzle: Exclusion 2)")
"Y"
>>> group_label("AUCCGUUCUUAGGAUAUUUGAUAAGUCAUGUACGAAGAAGGAAGAACAUGAGGAUCACCCAUGUGGGACUUCGG [Eternabot (L2) Solution 12] (Eterna round: R97, puzzle: Exclusion 6)")
"N"
>>> group_label("ACUUAUUGAGGAUAUACAGAAAAUUACAUGAGGAUCACCCAUGUUCUUCAAUGUAUAUAUGUAGAAGGCAGAAGAA [JL-ex5-4.26 Malcolm mod] (Eterna round: R97, puzzle: Exclusion 5)")
"N"
>>> group_label("GCACUGCGAGGAUAUACAUGAGGAUCACCCAUGUGUCGGCAGCCACGGUAGCACGAGUGUAGAAGGCGCGUUAG [EX3 #45] (Eterna round: R97, puzzle: Exclusion 3)")
"Y"
>>> group_label("GAUCGACAUGAGGAUCACCCAUGUCAGGAUAUCUACAUUGAAGCUGCGGCUUCAAUGUAGAGAAGGGAUAUAAU [E1/16-B1] (Eterna round: R97, puzzle: Exclusion 1)")
"N"
>>> group_label("AGAUGUUAAGAGGAUAUCAGCCGAAACCGGCAGUGAGAAGGCUUGACAUGAGGAUCACCCAUGUUUUGCGGUAA [Intebiabe] (Eterna round: R97, puzzle: Exclusion 6)")
"Y"

----------
Test system: MS2 coat protein
Assay Details: apparent KD of MS2 coat protein; higher = weaker reporter binding
Test Conditions: Eterna round: R101; input ligand: none
Decision: apparent KD of MS2 coat protein >= 60 nM yields Fulfilled, all other cases yield Not fulfilled.

>>> group_label("AAGAAGCUCACAGGAUAUCAGUAUAUGCUAUCUAGCGUAUUAAUGAACUGCUGAGAAGGGUGAGACAUGAGGAUCACCCAUGUA [Angeon] (puzzle (switch architecture): Small Loop Same State NG 1)")
"Fulfilled"
>>> group_label("AAUAAUUCUCAAGGAUAUCAGUGGCAAAGCCACUGAGAAGGUGAGGAUCACCCACCUACGUGACGCUGGAAACAGCGUCACGAA [#SharedSequence ExNG1 - 34] (puzzle (switch architecture): Exclusion NG 1)")
"Not fulfilled"
>>> group_label("ACACGUCGUGAGAAGGAGGAUCACCCUUUCGAAAGAAAUAGCCACCGUGAAAACGGUGGCAAAUCCUAGGAUAUCACGACGUGA [#SharedSequence - IExNG2: 4] (puzzle (switch architecture): Inverted Exclusion NG 2)")
"Fulfilled"
>>> group_label("AAUAAACAAUAAAAGACUGGAGCAAACUUUUGAGGAUCACCCAGAAGGCGUCACCUAAUAGGUGACGAGGAUAUGGAGCUCCAG [#SharedSequence IExNG# - 4] (puzzle (switch architecture): Inverted Exclusion NG 3)")
"Not fulfilled"
>>> group_label("ACAGGUCGUGAGAAGGAGAGUGGCACCGUCGAAAGACGGUGCAACUAGAAACCUAGAGGAUCACCCUAGGAUAUCACGACCUGA [#SharedSequence - IExNG2: 11] (puzzle (switch architecture): Inverted Exclusion NG 2)")
"Not fulfilled"
>>> group_label("GUCCCUACAUGAGGAUCACCCAUGUGGGCGGUAAGGAGCCCACAGGAUAUGCGAAGGAGGACAUAGCAGAAGGGUGGUGUUCAG [Erenerbe] (puzzle (switch architecture): Same State NG 3)")
"Fulfilled"
>>> group_label("CUUAGUUUGUAGAAGGGUGACAUGAGGAUCACCCAUGUGCGUAGCCUGAAAGACCAGGGUACGCCACAGGAUAUACAAAGUAAG [Onenisa] (puzzle (switch architecture): Inverted Same State NG 2)")
"Not fulfilled"
>>> group_label("GUCCCUACAUGAGGAUCACCCAUGUGGGCAGUAAGAAGCCCACAGGAUAUGCGAAGGAGGACAUAGCAGAAGGGUGGUGUUUAG [Reaninveri] (puzzle (switch architecture): Same State NG 3)")
"Fulfilled"
>>> group_label("GGCAGCCCUCAGAAGGGAGUGCGAUAAUCGCACUCAGGAUAUGAGGAUCACCCAUAUCAAGCUGCCACUGAGGCAAAGCCUCAG [#SharedSequence - IEx NG 1-1] (puzzle (switch architecture): Inverted Exclusion NG 1)")
"Not fulfilled"
